# SUBJECT OF TEST: Cytochrome P450 2D6 (Homo sapiens) (UniProt P10635)
# Sequence (P10635 whole entry, looked up): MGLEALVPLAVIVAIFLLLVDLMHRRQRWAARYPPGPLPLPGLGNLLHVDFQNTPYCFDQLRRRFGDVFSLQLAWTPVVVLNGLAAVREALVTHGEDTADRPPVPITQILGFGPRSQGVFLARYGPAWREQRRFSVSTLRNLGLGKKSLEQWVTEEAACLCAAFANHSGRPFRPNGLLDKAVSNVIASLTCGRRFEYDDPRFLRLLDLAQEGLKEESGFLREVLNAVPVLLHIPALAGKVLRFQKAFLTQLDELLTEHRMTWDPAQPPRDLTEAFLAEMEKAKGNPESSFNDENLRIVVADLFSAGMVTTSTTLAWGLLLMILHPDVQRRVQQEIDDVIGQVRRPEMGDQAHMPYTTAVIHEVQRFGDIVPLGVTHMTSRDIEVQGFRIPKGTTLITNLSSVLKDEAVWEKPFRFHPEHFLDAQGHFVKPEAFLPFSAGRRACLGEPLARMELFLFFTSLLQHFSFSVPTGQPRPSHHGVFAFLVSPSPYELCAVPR
# ASSAY SUMMARY: Cytochrome P450 family 2 subfamily D member 6 (CYP2D6) small molecule antagonists: luciferase biochemical (cell-free) qHTS assay (AID 1645840); note: nearly all actives have a fitted effect of over 55% in size
# MEASUREMENT CONDITIONS: P450-Glo CYP2D6 enzyme, luciferin luminescence, 1 h; series mostly up to 57.4 µM
Records with an inconclusive call do not appear. Calls of active or inactive are those of the source. Calls come from the whole dose curve; as a rule, active = well fitted inhibition curve with a large enough effect in the repeat runs; inconclusive = weak or mixed curves; inactive = flat fitted curve, though single readings scatter.
Labels: 1 (active), 0 (inactive)

COMPOUND | ASSIGNED CATEGORY
CCc1cc2c(s1)-n1c(C)nnc1CN=C2c1ccccc1Cl | 0
Oc1ccc(Cl)cc1 | 0
COc1c2c(cc3c1OCO3)CCN(C)C2 | 1
O=c1c(C2CC(c3ccc(-c4ccc(Br)cc4)cc3)Cc3ccccc32)c(O)sc2ccccc12 (stereo not drawn) | 0
COP(=S)(OC)Oc1cc(Cl)c(Cl)cc1Cl | 0
NCCc1ccc(O)cc1 | 1
O=C(O)CCCc1ccc(N(CCCl)CCCl)cc1 | 0
O=[N+]([O-])O[C@H]1CO[C@H]2[C@@H]1OC[C@H]2O[N+](=O)[O-] | 0

src = PubChem BioAssay (NCATS)
